Biological target: human cannabinoid receptor 1 (huCB1), full length, expressed on cells (human, UniProt P21554 1-472)
Sequence (P21554 whole entry): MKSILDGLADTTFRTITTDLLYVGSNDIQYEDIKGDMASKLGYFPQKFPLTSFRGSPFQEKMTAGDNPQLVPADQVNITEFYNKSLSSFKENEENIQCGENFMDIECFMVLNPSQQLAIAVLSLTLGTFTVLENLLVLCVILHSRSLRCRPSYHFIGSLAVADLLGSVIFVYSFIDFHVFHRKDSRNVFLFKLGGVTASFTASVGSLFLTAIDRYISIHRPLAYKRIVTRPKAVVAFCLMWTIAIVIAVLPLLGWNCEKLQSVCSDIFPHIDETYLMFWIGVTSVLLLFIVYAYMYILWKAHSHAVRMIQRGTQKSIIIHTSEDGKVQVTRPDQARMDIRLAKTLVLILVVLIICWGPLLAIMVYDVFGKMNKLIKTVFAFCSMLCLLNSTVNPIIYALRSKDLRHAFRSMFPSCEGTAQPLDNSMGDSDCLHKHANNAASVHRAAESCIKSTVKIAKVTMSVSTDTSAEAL
Assay: cell-based or functional assay
Listed binders paired with reported n = 2 IC50, -fold vs Rimo
Report only the number, with the unit fold vs Rimonabant understood.

| Binder | Measurement Type | Display Unit | Result Number |
| --- | --- | --- | --- |
| LIBC527879-1 (antibody, V domains shown) VH: QVQLQESGPGLVKPSQTLSLTCTVSGGSIRRGGDYWGWIRQHPGKGLEWIGHIYQSGSTNYNPKLKSRATISVDTYKNQFSLKLSSVTAADTAVYYCARDYDIFTGYSYYYYGMDVWGQGTTVTVSS VL: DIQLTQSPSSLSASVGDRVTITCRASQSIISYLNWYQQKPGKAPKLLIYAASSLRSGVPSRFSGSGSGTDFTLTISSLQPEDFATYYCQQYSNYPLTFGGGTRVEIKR | n = 2 IC50, -fold vs Rimo | fold vs Rimonabant | 0.99 |

Proceeding to the next binder to report its n = 2 IC50, -fold vs Rimo.
Lookup result for LIBC523603-1 (antibody, V domains shown) VH: QVQLQESGPGLVKPSQTLSLTCTVSGGSIRRGGDYWAWIRQHPGKGLEWIGHVYQSGQTAYNPNFENRATISVNTYKNQFSLKLSSVTAADTAVYYCARDYDAVSGYSYYYYGMDVWGQGTTVTVSS VL: DIVMTQSPLSLPVTPGEPASISCRSSQSLLSSYGNNYVDWYLQKPGQSPQLLIYQGSNRASGVPDRFSGSGSGTDFTLKISRVEAEDVGVYYCRQAVGLPRTFGQGTKVEIKR ; measured n = 2 IC50, -fold vs Rimo: 1.2
